Hey, just so you know, these numbers are from patent US4593097A.

Tested on: Klebsiella pneumoniae ATCC 10031
Here the recorded MIC is given for each entry.
reportedEndpoint: MIC

- CC(O)c1cccc2nc3c(C(=O)O)cccc3nc12 (stereo not shown) [DC-86-Y, metal not drawn]: > 100 µg/mL
- CC(OC(=O)CCl)c1cccc2nc3c(C(=O)O)cccc3nc12 (stereo not shown): > 100 µg/mL
- CC(OC(=O)CO)c1cccc2nc3c(C(=O)O)cccc3nc12 (stereo not shown): 100 µg/mL
- CC(OC(=O)COC(C)(C)C)c1cccc2nc3c(C(=O)O)cccc3nc12 (stereo not shown): > 100 µg/mL

---

The following compounds have recorded MIC on Bacillus subtilis No. 10707.
reportedEndpoint: MIC (µg/mL)

- CC(OC(=O)CCl)c1cccc2nc3c(C(=O)O)cccc3nc12 (stereo not shown): 0.01
- CC(OC(=O)COC(C)(C)C)c1cccc2nc3c(C(=O)O)cccc3nc12 (stereo not shown): 0.7
- CC(OC(=O)CO)c1cccc2nc3c(C(=O)O)cccc3nc12 (stereo not shown): 0.1
